The entries below come with measured pKd values attached.
molecular target: T1, IFN-αC (human, UniProt P01566 24-189); experiment: ProteOn, one antigen concentration
T1 construct: also called IFN-α10; alpha C
Please express pKd as -log10 of the molar concentration.

Lookup: pKd lookup needed for IFWM3338 (antibody, V domains shown, VH IFWH591, VL IFWL1091; converted mAb; also called IFWB3073) VH: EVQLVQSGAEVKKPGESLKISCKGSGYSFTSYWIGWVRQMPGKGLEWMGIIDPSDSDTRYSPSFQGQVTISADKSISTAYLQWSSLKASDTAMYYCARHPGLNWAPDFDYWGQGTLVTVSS VL: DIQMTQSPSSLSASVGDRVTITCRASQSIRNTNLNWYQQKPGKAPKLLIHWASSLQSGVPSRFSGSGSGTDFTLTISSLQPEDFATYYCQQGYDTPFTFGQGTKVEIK , thanks.
Found: 10.34

Lookup: Item IFWM3318 (antibody, V domains shown, VH IFWH591, VL IFWL1038; converted mAb; also called IFWB3053) VH: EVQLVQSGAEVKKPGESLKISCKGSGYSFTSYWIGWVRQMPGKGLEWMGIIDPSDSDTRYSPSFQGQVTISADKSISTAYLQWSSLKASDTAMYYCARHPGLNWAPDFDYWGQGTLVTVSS VL: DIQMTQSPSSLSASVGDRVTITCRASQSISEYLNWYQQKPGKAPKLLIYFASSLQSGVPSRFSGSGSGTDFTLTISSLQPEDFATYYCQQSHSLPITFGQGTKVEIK has what recorded pKd?
Found: 10.52

Lookup: Bench note: what pKd did IFWM3352 (antibody, V domains shown, VH IFWH624, VL IFWL1013; converted mAb; also called IFWB3087) VH: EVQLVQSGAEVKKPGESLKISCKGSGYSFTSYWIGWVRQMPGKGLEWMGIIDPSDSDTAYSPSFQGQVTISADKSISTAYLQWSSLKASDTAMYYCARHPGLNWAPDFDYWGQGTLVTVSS VL: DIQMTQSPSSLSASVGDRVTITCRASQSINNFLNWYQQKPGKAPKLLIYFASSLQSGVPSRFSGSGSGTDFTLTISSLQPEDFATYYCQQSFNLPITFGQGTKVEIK show?
Found: 9.92

Cited source for all entries: patent US20150368338A1
